The reported measurements were obtained from patent US12661410B2.

# Emax values compiled below
# Target system: RET(KD: 658-1114 G810R) (Homo sapiens, UniProt P07949, G810R)
# Construct: 658-1114; expressed in transfected cells; host or cells: 293T.165 (293T cells, generated in-house)
# Protocol description: HiBiT-Degradation, RET G810R degradation assay (Nano-Glo HiBiT Lytic), 293T.165 cells
# Format: cell-based
# Settings: 6.0 hours, % remaining protein, read-out: 293T.165 RET(KD: 658-1114 G810R) 6.0 hours (Emax)

| Compound | Emax |
| --- | --- |
| N#Cc1cnn2cc(-c3ccc(N4CCN(C(=O)CC5(O)CCN(c6ccc(NC7CCC(=O)NC7=O)cc6F)CC5)CC4)cc3)nc(-c3ccc(N4CC5CC(C4)N5Cc4ccccc4)nc3)c12 (centres unmarked) | < 30% |

Next compound, Emax to be filled in.
Look up Emax: CCC1(C(=O)NC(C)(C)C)CCN(c2ccc(-c3nc(-c4cnn([C@H]5CC[C@H](N6CCC(c7ccc(N[C@H]8CCC(=O)NC8=O)cc7F)CC6)CC5)c4)cn4ncc(C#N)c34)cn2)CC1 (single isomer, unassigned)
< 30%

###

# Target system: RET(KD: 658-1114 G810R) (Homo sapiens, UniProt P07949, G810R)
# Construct: 658-1114; expressed in transfected cells; host or cells: 293T.165 (293T cells, generated in-house)
# Protocol description: HiBiT-Degradation, RET G810R degradation assay (Nano-Glo HiBiT Lytic), 293T.165 cells
# Type: cell-based
# Settings: HiBiT-Degradation, 6.0 hours, read-out: 293T.165 RET(KD: 658-1114 G810R) 6.0 hours (DC50)
# DC50 values compiled below

| Compound | DC50 |
| --- | --- |
| N#Cc1cnn2cc(-c3ccc(N4CCN(C(=O)CN5CCC(c6ccc(NC7CCC(=O)NC7=O)cc6F)CC5)CC4)cc3)nc(-c3ccc(N4CC5CC(C4)N5Cc4ccccc4)nc3)c12 (stereo not drawn) | < 100 nM |
| CC(C)NC(=O)C1(C)CCN(c2ccc(-c3cc(-c4cnn([C@H]5CC[C@H](CCN6CCC(c7ccc(NC8CCC(=O)NC8=O)cc7F)CC6)CC5)c4)cn4ncc(C#N)c34)cn2)CC1 (stereo partly drawn) | < 50 nM |

Next compound, DC50 to be filled in.
Look up DC50 with RET(KD: 658-1114 G810R) (Homo sapiens, UniProt P07949, G810R) for this compound: COC1(C(=O)NC(C)C)CCN(c2ccc(-c3cc(-c4cnn(C5CCN(C(=O)CN6CCC(c7ccc(NC8CCC(=O)NC8=O)cc7F)CC6)CC5)c4)cn4ncc(C#N)c34)cn2)CC1 (stereo not drawn)
< 50 nM

###

# Target system: RET(KD: 658-1114 G810R) (Homo sapiens, UniProt P07949, G810R)
# Construct: 658-1114; expressed in transfected cells; host or cells: 293T.165 (293T cells, generated in-house)
# Sequence (P07949 658-1114 G810R): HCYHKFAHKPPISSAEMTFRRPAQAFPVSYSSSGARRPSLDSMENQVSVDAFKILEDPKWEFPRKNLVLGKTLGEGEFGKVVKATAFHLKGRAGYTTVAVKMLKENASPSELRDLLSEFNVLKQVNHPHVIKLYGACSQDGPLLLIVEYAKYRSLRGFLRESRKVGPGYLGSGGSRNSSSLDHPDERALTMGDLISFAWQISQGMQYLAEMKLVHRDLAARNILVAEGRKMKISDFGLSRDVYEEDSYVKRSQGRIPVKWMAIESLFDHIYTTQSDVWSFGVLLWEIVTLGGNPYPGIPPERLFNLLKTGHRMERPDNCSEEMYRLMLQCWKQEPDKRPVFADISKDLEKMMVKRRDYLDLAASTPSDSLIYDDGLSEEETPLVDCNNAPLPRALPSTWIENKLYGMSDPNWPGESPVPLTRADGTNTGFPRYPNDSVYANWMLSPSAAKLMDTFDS
# Protocol description: HiBiT-Degradation, RET G810R degradation assay (Nano-Glo HiBiT Lytic), 293T.165 cells
# Format: cell-based
# Settings: 6.0 hours, half-maximal degradation concentration, read-out: 293T.165 RET(KD: 658-1114 G810R) 6.0 hours (DC50)
# DC50 values compiled below

These recorded examples may help you get a feel for the data.
| Molecule | Assay metric | Readout value |
| --- | --- | --- |
| CCC1(C(=O)NC(C)C)CCN(c2ccc(-c3nc(-c4cnn(C5CCN(C(=O)CC6(O)CCN(c7ccc(N[C@H]8CCC(=O)NC8=O)cc7F)CC6)CC5)c4)cn4ncc(C#N)c34)cn2)CC1 (single isomer, unassigned) [Compound 80] | DC50 | < 50 nM |
| CCC1(C(=O)NC[C@H]2C[C@H](F)C2)CCN(c2ccc(-c3nc(-c4cnn([C@H]5CC[C@H](N6CCN(c7ccc(NC8CCC(=O)NC8=O)cc7F)CC6)CC5)c4)cn4ncc(C#N)c34)cn2)CC1 (some centres unmarked) [Compound 207] | DC50 | < 50 nM |
| CCC1(C(=O)NC(C)C)CCN(c2ccc(-c3nc(-c4cnn(C5CN(C(=O)CC6(O)CCN(c7ccc(NC8CCC(=O)NC8=O)cc7F)CC6)C5)c4)cn4ncc(C#N)c34)cn2)CC1 (centres unmarked) [Compound 184] | DC50 | < 50 nM |

Look up DC50: CCC1(C(=O)NC2CCC2)CCN(c2ccc(-c3nc(-c4cnn([C@H]5CC[C@H](N6CCC(c7ccc(N[C@H]8CCC(=O)NC8=O)cc7)CC6)CC5)c4)cn4ncc(C#N)c34)cn2)CC1 (single isomer, unassigned) [Compound 127]
< 50 nM

Another molecule to check: CCC1(C(=O)NC2CCC2)CCN(c2ccc(-c3nc(-c4cnn([C@H]5CC[C@H](N6CCN(c7cc(OC)c(N[C@@H]8CCC(=O)NC8=O)cc7F)CC6)CC5)c4)cn4ncc(C#N)c34)cn2)CC1 (single isomer, unassigned) [Compound 135]
< 50 nM

Another molecule to check: CCC1(C(=O)NC2CCC2)CCN(c2ccc(-c3nc(-c4cnn(C5CCN([C@H]6CCN(c7ccc(N[C@H]8CCC(=O)NC8=O)cc7F)CC6(F)F)CC5)c4)cn4ncc(C#N)c34)cn2)CC1 (single isomer, unassigned) [Compound 191]
< 100 nM

Another molecule to check: CCC1(C(=O)NC2CCCC2)CCN(c2ccc(-c3nc(-c4cnn([C@H]5CC[C@H](N6CCC(c7ccc(N[C@@H]8CCC(=O)NC8=O)cc7F)CC6)CC5)c4)cn4ncc(C#N)c34)cn2)CC1 [Compound 142]
< 50 nM

Another molecule to check: COc1cc(N2CCN([C@H]3CC[C@H](n4cc(-c5cn6ncc(C#N)c6c(-c6ccc(N7C[C@@H]8C[C@@](C)(NC(=O)c9ncccc9Cl)C[C@@H]8C7)nc6)n5)cn4)CC3)CC2)c(F)cc1NC1CCC(=O)NC1=O (some centres unmarked) [Compound 209]
< 100 nM

Another molecule to check: CCC1(C(=O)NC2CCCC2)CCN(c2ccc(-c3nc(-c4cnn([C@H]5CC[C@H](N6CCC(c7ccc(N[C@H]8CCC(=O)NC8=O)cc7F)CC6)CC5)c4)cn4ncc(C#N)c34)cn2)CC1 [Compound 141]
< 50 nM

Another molecule to check: CC1(NC(=O)Cc2ccccc2)CCN(c2ccc(-c3cc(-c4ccc(N5CCN(C(=O)CN6CCC(c7ccc(NC8CCC(=O)NC8=O)cc7F)CC6)CC5)cc4)cn4ncc(C#N)c34)cn2)CC1 (centres unmarked) [Compound 23]
< 100 nM

###

# Target system: RET (658-1114) (Homo sapiens, UniProt P07949)
# Construct: 658-1114; expressed in transfected cells; host or cells: 293T.144 (293T cells, generated in-house)
# Sequence (P07949 658-1114): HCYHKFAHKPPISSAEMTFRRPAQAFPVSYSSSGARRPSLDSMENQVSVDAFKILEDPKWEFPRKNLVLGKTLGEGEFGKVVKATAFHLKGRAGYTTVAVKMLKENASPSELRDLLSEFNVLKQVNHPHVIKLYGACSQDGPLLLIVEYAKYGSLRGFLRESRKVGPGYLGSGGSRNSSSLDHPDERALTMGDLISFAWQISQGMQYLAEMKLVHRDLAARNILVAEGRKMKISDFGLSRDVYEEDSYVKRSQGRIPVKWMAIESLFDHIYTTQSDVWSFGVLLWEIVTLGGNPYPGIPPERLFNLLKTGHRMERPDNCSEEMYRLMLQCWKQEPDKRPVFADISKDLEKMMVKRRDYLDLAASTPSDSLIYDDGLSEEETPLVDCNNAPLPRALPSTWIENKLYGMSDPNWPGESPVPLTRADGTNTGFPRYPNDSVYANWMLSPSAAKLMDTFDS
# Protocol description: HiBiT-Degradation, RET wild-type degradation assay (Nano-Glo HiBiT Lytic), 293T.144 cells
# Assay type: cell-based
# Settings: 6.0 hours, half-maximal degradation concentration, read-out: 293T.144 RET (658-1114) 6.0 hours (DC50)
Assay metric: DC50

| Compound | Readout value |
| --- | --- |
| COc1ccc(CC2(O)CCN(c3ccc(-c4nc(-c5cnn([C@H]6CC[C@H](N7CCN(c8cc(OC)c(NC9CCC(=O)NC9=O)cc8F)CC7)CC6)c5)cn5ncc(C#N)c45)cn3)CC2)nc1 (some centres unmarked) [Compound 215] | < 50 nM |

Next compound, DC50 to be filled in.
Look up DC50: CCC1(C(=O)NC2CCC2)CCN(c2ccc(-c3nc(-c4cnn([C@H]5CC[C@H](N6CCC(c7ccc(NC8CCC(=O)NC8=O)cc7Cl)CC6)CC5)c4)cn4ncc(C#N)c34)cn2)CC1 (single isomer, unassigned) [Compound 133]
< 50 nM
